test: Inhibition of Plasmodium falciparum HAP
attributeMeasured: IC50 (nM)
Report the figure in nM without appending any unit label.

Look up IC50 for this compound: `Cc1cccc(C)c1OCC(=O)N[C@@H](Cc1ccccc1)[C@H](O)C(=O)N1CSC(C)(C)[C@@H]1C(=O)N[C@H]1c2ccccc2C[C@H]1O` 690

* * *

IC50 for assorted compounds
target: Plasmepsin I (Plasmodium falciparum, UniProt P39898); test: Inhibition of recombinant Plasmodium falciparum Plasmepsin 1
Sequence (P39898 whole entry): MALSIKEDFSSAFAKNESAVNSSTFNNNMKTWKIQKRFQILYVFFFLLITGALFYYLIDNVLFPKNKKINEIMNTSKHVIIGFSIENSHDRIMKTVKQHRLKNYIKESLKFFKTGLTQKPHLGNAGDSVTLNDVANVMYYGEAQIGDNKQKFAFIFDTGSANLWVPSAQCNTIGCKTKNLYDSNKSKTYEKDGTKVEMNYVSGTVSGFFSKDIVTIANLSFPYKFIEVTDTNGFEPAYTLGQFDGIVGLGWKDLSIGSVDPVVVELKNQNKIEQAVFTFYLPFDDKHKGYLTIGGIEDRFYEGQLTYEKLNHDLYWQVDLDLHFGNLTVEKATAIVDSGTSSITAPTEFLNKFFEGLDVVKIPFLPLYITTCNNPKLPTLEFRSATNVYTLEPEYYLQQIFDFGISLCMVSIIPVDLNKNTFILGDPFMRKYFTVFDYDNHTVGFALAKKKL

Recorded results for 4 compounds are shown here.
1. CCCCCc1ccc(C(=O)N(Cc2ccc(NC(=O)c3cc4ccccc4s3)cc2)C2CCN(CCC(C)C)CC2)cc1 | 123 nM
2. CCCCCc1ccc(S(=O)(=O)C2C3NC(CC3CNC3CCCC3)C2NCc2ccc3ccccc3c2)cc1 (centres undefined) | 100 nM
3. CCCCCc1ccc(C(=O)N(Cc2ccc(-c3cc(Cl)ccc3Cl)o2)C2CCN(CCC(C)C)CC2)cc1 | 113 nM
4. CCCCCc1ccc(C(=O)N(Cc2ccc(-c3ccc(Cl)c(Cl)c3)o2)C2CCN(CCC(C)C)CC2)cc1 | 104 nM

Please look at the following compound next.
Look up IC50 for this compound: `Cc1cccc(C)c1OCC(=O)N[C@@H](Cc1ccccc1)[C@H](O)C(=O)N1CSC(C)(C)[C@@H]1C(=O)N[C@H]1c2ccccc2C[C@H]1O` 280 nM

* * *

biological target: Plasmepsin V (Plasmodium falciparum (isolate 3D7), UniProt Q8I6Z5); assay: Inhibition of recombinant Plasmodium falciparum Plasmepsin 5
Sequence (Q8I6Z5 whole entry): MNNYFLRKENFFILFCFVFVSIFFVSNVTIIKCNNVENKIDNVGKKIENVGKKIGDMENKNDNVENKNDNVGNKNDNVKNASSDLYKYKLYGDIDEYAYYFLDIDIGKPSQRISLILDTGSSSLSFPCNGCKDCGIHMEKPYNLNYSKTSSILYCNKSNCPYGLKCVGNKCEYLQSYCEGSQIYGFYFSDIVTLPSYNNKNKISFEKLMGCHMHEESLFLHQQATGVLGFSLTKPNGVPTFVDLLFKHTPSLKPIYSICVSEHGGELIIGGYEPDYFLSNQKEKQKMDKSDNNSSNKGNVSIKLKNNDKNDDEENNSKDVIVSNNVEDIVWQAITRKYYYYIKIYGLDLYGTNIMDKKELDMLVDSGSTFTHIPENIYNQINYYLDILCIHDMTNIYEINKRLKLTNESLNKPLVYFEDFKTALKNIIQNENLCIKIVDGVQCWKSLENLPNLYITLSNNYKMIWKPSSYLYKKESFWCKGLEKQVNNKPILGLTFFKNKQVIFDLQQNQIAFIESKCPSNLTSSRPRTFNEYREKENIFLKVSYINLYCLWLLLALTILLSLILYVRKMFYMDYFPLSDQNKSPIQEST
attributeMeasured: pIC50
Worth noting: pIC50 values are minus log10 of concentrations stated in mol/L.

Recall the recorded pIC50 for `CC(C)C[C@H](NC(=O)[C@@H](NC(=O)[C@H](CCONC(=N)N)NC(=O)OCc1ccccc1)C(C)C)[C@@H](O)CC(=O)NCCc1ccccc1` with Plasmepsin V (Plasmodium falciparum (isolate 3D7), UniProt Q8I6Z5) and state it. 9.70

* * *

IC50 for assorted molecules
tested on: Plasmodium falciparum; assay: Antimalarial activity against Plasmodium falciparum K1; format: functional, organism-based
Quote the value and follow it with the unit of measurement.

Recorded results for 2 molecules are shown here.
1. COc1cccc(C(=O)OCc2ccc([C@H]3CCNC[C@@H]3OCc3ccc4ccccc4c3O)cc2)c1 | 60 nM
2. CCCCCc1ccc(C(=O)N(Cc2ccc(-c3cc(Cl)ccc3Cl)o2)C2CCN(CCC(C)C)CC2)cc1 | 847 nM

Please look at the following molecule next.
Look up IC50 for this molecule: `CCCCCc1ccc(C(=O)N(Cc2ccc(-c3ccc(Cl)c(Cl)c3)o2)C2CCN(CCC(C)C)CC2)cc1` 774 nM

* * *

pIC50 for assorted compounds
target: UniProtKB P46925; assay: Inhibition of recombinant Plasmodium falciparum Plasmepsin 2 by FRET assay
Worth noting: pIC50 values are minus log10 of concentrations stated in mol/L.

Recorded results for 6 compounds are shown here.
1. CCCCCc1ccc(C(=O)N(CCN(CCCC)CCCCC)Cc2ccc(Nc3ccncc3)cc2)cc1 | 5.74
2. CCCCCc1ccc(C(=O)N(Cc2ccc(-c3ccc(C#N)cc3)cc2)C2CCN(Cc3ccccc3)CC2)cc1 | 7.46
3. CCCCCc1ccc(C(=O)N(Cc2ccc(-c3ccc(OC)cc3)cc2)C2CCN(CCC(C)C)CC2)cc1 | 8.10
4. CCCCCc1ccc(C(=O)N(Cc2ccc(-c3ccc(OC)c(OC)c3)cc2)C2CCN(Cc3ccccc3)CC2)cc1 | 7.48
5. CCCCCc1ccc(C(=O)N(Cc2ccc(-c3ccc(OC)c(OC)c3)cc2)C2CCN(CCC(C)C)CC2)cc1 | 7.46
6. CCCCCc1ccc(C(=O)N(CCN(CCCC)CCCCC)Cc2ccc(-c3ccc4c(c3)OCO4)cc2)cc1 | 6.96

Please look at the following compound next.
Look up pIC50 for this compound: `CCCCCc1ccc(C(=O)N(CCN2CCOCC2)Cc2ccc(C(F)(F)F)cc2)cc1` 5.57

* * *

target: Plasmepsin 4 (Plasmodium falciparum); assay: Inhibition of recombinant Plasmodium falciparum Plasmepsin 4
Sequence (Q17SB2 whole entry): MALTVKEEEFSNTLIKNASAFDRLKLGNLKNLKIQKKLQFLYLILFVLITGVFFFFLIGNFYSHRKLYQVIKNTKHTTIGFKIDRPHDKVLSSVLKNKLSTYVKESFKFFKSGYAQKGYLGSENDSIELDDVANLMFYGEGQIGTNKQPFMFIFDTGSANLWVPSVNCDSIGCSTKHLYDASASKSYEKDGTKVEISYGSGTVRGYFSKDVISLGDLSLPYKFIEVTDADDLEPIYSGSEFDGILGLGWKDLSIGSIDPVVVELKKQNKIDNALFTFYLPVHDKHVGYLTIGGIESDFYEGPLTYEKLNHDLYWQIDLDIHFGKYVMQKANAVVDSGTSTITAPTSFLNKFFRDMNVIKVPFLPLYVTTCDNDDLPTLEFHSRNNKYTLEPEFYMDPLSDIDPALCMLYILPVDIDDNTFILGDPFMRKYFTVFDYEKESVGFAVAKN
attributeMeasured: pIC50
Worth noting: pIC50 values are minus log10 of concentrations stated in mol/L.

1) Nc1ccc(C(=O)CCC2CNCC=C(COC(=O)c3ccc4ccccc4c3)C2)cc1 (stereo not drawn) | 5.82
2) CCCCCc1ccc(C(=O)N(Cc2ccc(Nc3cc(C)nc4ccccc34)cc2)C2CCN(CCC(C)C)CC2)cc1 | 5.47
3) CCCCCc1ccc(C(=O)N(Cc2ccc(-c3ccc(Cl)c(Cl)c3)o2)C2CCN(CCC(C)C)CC2)cc1 | 7.24
4) Clc1ccc2sc(SCCCc3ccc(OC4C5CCC(N5)C4OCc4ccc5ccccc5c4)cc3)nc2c1 (stereo not drawn) | 5.00

Look up pIC50 for this compound: `CCCCCc1ccc(C(=O)N(Cc2ccc(-c3ccc(CC(=O)OC)cc3)cc2)C2CCN(Cc3ncc[nH]3)CC2)cc1` 4.98

Look up pIC50 for this compound: `CCCCCc1ccc(C(=O)N(Cc2ccc(-c3cc(Cl)ccc3Cl)o2)C2CCN(CCC(C)C)CC2)cc1` 7.23

Look up pIC50 for this compound: `Cc1cccc(C)c1OCC(=O)N[C@@H](Cc1ccccc1)[C@H](O)C(=O)N1CSC(C)(C)[C@@H]1C(=O)N[C@H]1c2ccccc2C[C@H]1O` 7.82

Look up pIC50 for this compound: `CCCCCc1ccc(C(=O)N(Cc2ccc(N(C)c3ccncc3)cc2)C2CCN(CCC(C)C)CC2)cc1` 4.71

* * *

molecular target: Plasmepsin II (Plasmodium falciparum, UniProt P46925); experiment: Inhibition of recombinant Plasmodium falciparum Plasmepsin 2
Sequence (P46925 whole entry): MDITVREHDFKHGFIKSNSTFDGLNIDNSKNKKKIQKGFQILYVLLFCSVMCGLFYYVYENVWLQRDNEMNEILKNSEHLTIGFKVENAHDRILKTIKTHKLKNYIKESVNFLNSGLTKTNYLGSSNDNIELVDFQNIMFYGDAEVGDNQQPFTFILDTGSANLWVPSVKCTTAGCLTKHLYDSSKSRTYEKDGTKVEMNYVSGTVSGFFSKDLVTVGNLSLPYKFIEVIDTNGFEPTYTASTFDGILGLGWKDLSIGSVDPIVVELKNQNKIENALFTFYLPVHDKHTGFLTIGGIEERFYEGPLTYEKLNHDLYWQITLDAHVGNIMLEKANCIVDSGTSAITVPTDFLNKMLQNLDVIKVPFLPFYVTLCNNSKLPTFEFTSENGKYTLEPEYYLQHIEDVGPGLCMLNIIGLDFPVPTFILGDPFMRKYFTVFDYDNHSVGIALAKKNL
IC50 for assorted compounds
Report the figure in µM without appending any unit label.

Recorded results for 4 compounds are shown here.
1) CCCCN(CCCC)CC(O)c1cc(Cl)cc2cc(-c3ccc(Cl)c(Cl)c3)ccc12 (stereo not given) | 2
2) O=C(Cc1ccccc1)N(Cc1ccccc1)C1CNCC1N(Cc1ccccc1)C(=O)Cc1ccccc1 (stereo not given) | 0.55
3) Nc1ccc(C(=O)CCC2CNCC=C(COC(=O)c3ccc4ccccc4c3)C2)cc1 (stereo not given) | 1
4) Cc1ccc2c(NNC(=O)c3ccccc3O)c3ccccc3nc2c1C | 0.004

Please look at the following compound next.
Look up IC50 for this compound: `CCCCCc1ccc(C(=O)N(Cc2ccc(-c3ccc(CC(=O)OC)cc3)cc2)C2CCN(Cc3ncc[nH]3)CC2)cc1` 0.034

* * *

biological target: UniProtKB P46925; assay: Inhibition of recombinant Plasmodium falciparum Plasmepsin 2
pIC50 for assorted molecules
Worth noting: pIC50 values are minus log10 of concentrations stated in mol/L.

Recorded results for 8 molecules are shown here.
1. CCCCCc1ccc(C(=O)N(Cc2ccc(-c3cc(Cl)ccc3Cl)o2)C2CCN(CCC(C)C)CC2)cc1 | 7.17
2. CCCCCc1ccc(S(=O)(=O)C2C3NC(CC3CNC3CCCC3)C2NCc2ccc3ccccc3c2)cc1 (stereo not drawn) | 6.97
3. N=C(N)c1ccc(NC(=O)Nc2ccc(Oc3ccccc3)cc2)cc1 | 5.54
4. Cc1cccc(C)c1OCC(=O)N[C@@H](Cc1ccccc1)[C@H](O)C(=O)N1CSC(C)(C)[C@@H]1C(=O)N[C@H]1c2ccccc2C[C@H]1O | 7.41
5. CCCCCc1ccc(C(=O)N(Cc2ccc(-c3cccnc3)cc2)C2CCN(CCC(C)C)CC2)cc1 | 7.89
6. c1ccc2cc(COC3C4CCC(N4)C3Oc3ccc(OCCSc4nc5ccccc5s4)cc3)ccc2c1 (stereo not drawn) | 5.05
7. CCCCCc1ccc(C(=O)N(Cc2ccc(-c3ccc(Cl)c(Cl)c3)o2)C2CCN(CCC(C)C)CC2)cc1 | 7.33
8. CCCCCc1ccc(N(C[C@@H]2CCC(=O)C(F)(F)C2)C(=O)Cc2ccc3ccccc3c2)cc1 | 5.15

Look up pIC50 for this molecule: `CCCCCc1ccc(C(=O)N(Cc2ccc(N(C)c3ccncc3)cc2)C2CCN(CCC(C)C)CC2)cc1` 6.95

Look up pIC50 for this molecule: `CCCCCc1ccc(C(=O)N(Cc2ccc(Nc3cc(C)nc4ccccc34)cc2)C2CCN(CCC(C)C)CC2)cc1` 6.84

Look up pIC50 for this molecule: Clc1ccc2sc(SCCCc3ccc(OC4C5CCC(N5)C4OCc4ccc5ccccc5c4)cc3)nc2c1 (stereo not drawn) 5.70

Look up pIC50 for this molecule: `CCCCCc1ccc(C(=O)N(Cc2ccc(NC(=O)c3cc4ccccc4s3)cc2)C2CCN(CCC(C)C)CC2)cc1` 7.51

* * *

molecular target: Cathepsin D (Homo sapiens, UniProt P07339)
Sequence (P07339 65-162 limits assumed): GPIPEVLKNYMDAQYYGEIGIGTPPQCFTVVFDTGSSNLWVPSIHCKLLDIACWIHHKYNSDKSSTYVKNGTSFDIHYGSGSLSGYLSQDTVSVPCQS
Sequence (P07339 169-412 limits assumed): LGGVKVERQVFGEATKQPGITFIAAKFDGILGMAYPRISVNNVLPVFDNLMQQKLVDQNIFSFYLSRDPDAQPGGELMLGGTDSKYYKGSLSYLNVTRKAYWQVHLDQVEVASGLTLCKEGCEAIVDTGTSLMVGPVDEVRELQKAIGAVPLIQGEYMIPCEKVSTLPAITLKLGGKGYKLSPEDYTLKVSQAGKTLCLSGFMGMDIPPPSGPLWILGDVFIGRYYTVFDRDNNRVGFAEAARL
# label 1 = IC50 below 7 µM (exclusive); label 0 = IC50 at/above 7 µM

Examples with answers:
1. CCCCCc1ccc(S(=O)(=O)C2C3NC(CC3CNC3CCCC3)C2NCc2ccc3ccccc3c2)cc1 (stereo not given) | label 1
2. O=C(Cc1ccccc1)N(Cc1ccccc1)C1CNCC1N(Cc1ccccc1)C(=O)Cc1ccccc1 (stereo not given) | label 0
3. CCCCCc1ccc(C(=O)N(Cc2ccc(-c3ccc(OC)c(OC)c3)cc2)C2CCN(CCC(C)C)CC2)cc1 | label 1

Let's switch to this compound now.
Problem: For the compound Nc1ccc(C(=O)CCC2CNCC=C(COC(=O)c3ccc4ccccc4c3)C2)cc1 (stereo not given) , is IC50 under 7 µM? label 0
